tested on: hERG (KCNH2); test: Selectivity ratio of IC50 for inhibition of human ERG by IonWorks patch clamp electrophysiology method to IC50 for antiplasmodial activity against multidrug-sensitive Plasmodium falciparum NF54 infected in human erythrocytes; type: toxicity, cell-based; conditions: read-out: Ratio IC50
Known selectivity ratio of a selection of molecules

Consider the reported selectivity ratio for these molecules:
{"Molecule": "Nc1ncc(-c2ccc(C(=O)N3CCNCC3)cc2)nc1-c1ccc(C(F)(F)F)cc1", "selectivity ratio": 1900}
{"Molecule": "Nc1ncc(-c2ccc(C(=O)N3CCC(N)C3)cc2)nc1-c1ccc(C(F)(F)F)cc1 (stereo unspecified)", "selectivity ratio": 526}
{"Molecule": "Nc1ncc(-c2ccc(C(=O)N3CCC(O)CC3)cc2)nc1-c1ccc(C(F)(F)F)cc1", "selectivity ratio": "> 1000"}

Query string: Dear colleague, please send me the reported selectivity ratio for `Nc1ncc(-c2ccc(C(=O)N3CC[C@@H](O)C3)cc2)nc1-c1ccc(C(F)(F)F)cc1` when you can.
Result string: > 1000

Query string: Dear colleague, please send me the reported selectivity ratio for `Nc1ncc(-c2ccc(C(=O)N3CCC(O)CC3)cc2)nc1-c1ccc(C(F)(F)F)nc1` when you can.
Result string: > 868

Query string: Dear colleague, please send me the reported selectivity ratio for `Nc1ncc(-c2ccc(C(=O)O)cc2)nc1-c1ccc(C(F)(F)F)cc1` when you can.
Result string: > 1000

====

experiment: Aqueous solubility of compound in pH 2 0.01M HCl incubated for 2 hrs under shaking condition by shake-flask method based HPLC-DAD analysis; type: physicochemical
Metric Name: solubility thermodynamic at 2 h (µM)
Return type: number; implicit unit µM.

Consider the reported solubility thermodynamic at 2 h for these compounds:
{"Compound": "Nc1ccc(-c2cnc(N)c(-c3ccc(C(F)(F)F)nc3)n2)cn1", "Assay Value": 199}
{"Compound": "NC(=O)c1ccc(-c2cnc(N)c(-c3ccc(C(F)(F)F)cc3)n2)cc1", "Assay Value": 80}
{"Compound": "Nc1ncc(-c2ccc(C(=O)N3CC(O)C3)cc2)nc1-c1ccc(C(F)(F)F)cc1", "Assay Value": 110}

Query string: Dear colleague, please send me the reported solubility thermodynamic at 2 h for `Nc1ncc(-c2ccc(C(=O)O)cc2)nc1-c1ccc(C(F)(F)F)nc1` when you can.
Result string: 191

Query string: Dear colleague, please send me the reported solubility thermodynamic at 2 h for Nc1ncc(-c2ccc(C(=O)N3CCC(N)C3)cc2)nc1-c1ccc(C(F)(F)F)nc1 (stereo not given) when you can.
Result string: 200

====

assay: Oral bioavailability in Sprague-dawley rat at 20 mg/kg by LC-MS/MS analysis; type: ADME, organism-based; conditions: in vivo
Metric Name: bioavailability (%)
Return type: number; implicit unit %.

Consider the reported bioavailability for these compounds:
{"Smiles": "NC(=O)c1ccc(-c2cnc(N)c(-c3ccc(C(F)(F)F)cc3)n2)cc1", "Units Symbol": "%", "bioavailability": 25}
{"Smiles": "Nc1ncc(-c2ccc(C(=O)N3CC[C@@H](O)C3)cc2)nc1-c1ccc(C(F)(F)F)cc1", "Units Symbol": "%", "bioavailability": 71}
{"Smiles": "Nc1ncc(-c2ccc(C(=O)O)cc2)nc1-c1ccc(C(F)(F)F)nc1", "Units Symbol": "%", "bioavailability": 38}

Query string: Dear colleague, please send me the reported bioavailability for `Nc1ncc(-c2ccc(C(=O)N3CC(O)C3)cc2)nc1-c1ccc(C(F)(F)F)cc1` when you can.
Result string: 20

Query string: Dear colleague, please send me the reported bioavailability for `Nc1ncc(-c2ccc(C(=O)N3CCNCC3)cc2)nc1-c1ccc(C(F)(F)F)cc1` when you can.
Result string: 98

====

system: Plasmodium falciparum; experiment: Antimalarial activity against Plasmodium falciparum 3D70087/N9 infected in NOD-SCID IL2Rgamma null mouse assessed as blood AUC level require to show 90% reduction in parasitemia administered orally on day 3 to 6 post-infection and measured day 7 post infection; assay type: functional, organism-based; conditions: time 5.0 day
Known AUC of a selection of molecules
Return type: number; implicit unit ng·h/mL.

{"Smiles": "Nc1ncc(-c2ccc(C(=O)N3CC[C@@H](O)C3)cc2)nc1-c1ccc(C(F)(F)F)cc1", "Units Symbol": "ng·h/mL", "AUC": 60}
{"Smiles": "Nc1ncc(-c2ccc(C(=O)N3CCC(O)CC3)cc2)nc1-c1ccc(C(F)(F)F)cc1", "Units Symbol": "ng·h/mL", "AUC": 60}
{"Smiles": "Nc1ncc(-c2ccc(C(=O)N3CC(O)C3)cc2)nc1-c1ccc(C(F)(F)F)cc1", "Units Symbol": "ng·h/mL", "AUC": 22}

Please examine the following record next.
Query string: Dear colleague, please send me the reported AUC for `Nc1ncc(-c2ccc(C(=O)O)cc2)nc1-c1ccc(C(F)(F)F)cc1` when you can.
Result string: 200

====

test: Apparent average plasma concentration in NMRI mouse plasma infected with Plasmodium berghei ANKA at 3 mg/kg, po qd for 4 consecutive days and measured post last dose; assay type: ADME, organism-based; conditions: in vivo, 96 h, time 4 day
Mark each entry Condition met if its Cave sits below 1000 nM, and Condition not met for all others.

{"Molecule": "Nc1ncc(-c2ccc(C(=O)N3CCC(O)C3)cc2)nc1-c1ccc(C(F)(F)F)cc1 (stereo not drawn)", "Class Name": "Condition not met"}
{"Molecule": "Nc1ncc(-c2ccc(C(=O)O)cc2)nc1-c1ccc(C(F)(F)F)nc1", "Class Name": "Condition not met"}
{"Molecule": "Nc1ncc(-c2ccc(C(=O)N3CC[C@@H](O)C3)cc2)nc1-c1ccc(C(F)(F)F)cc1", "Class Name": "Condition not met"}
{"Molecule": "Nc1ncc(-c2ccc(C(=O)O)cc2)nc1-c1ccc(C(F)(F)F)cc1", "Class Name": "Condition not met"}
{"Molecule": "NC(=O)c1ccc(-c2cnc(N)c(-c3ccc(C(F)(F)F)cc3)n2)cc1", "Class Name": "Condition not met"}
{"Molecule": "CC(C)(C)N1CCN(C(=O)c2ccc(-c3cnc(N)c(-c4ccc(C(F)(F)F)nc4)n3)cc2)CC1", "Class Name": "Condition met"}

Query string: State whether 1000 nM exceeds Cave recorded for `NC(=O)c1ccc(-c2cnc(N)c(-c3ccc(C(F)(F)F)nc3)n2)cc1` .
Result string: Condition not met

Query string: State whether 1000 nM exceeds Cave recorded for `Nc1ncc(-c2ccc(C(=O)N3CCNCC3)cc2)nc1-c1ccc(C(F)(F)F)cc1` .
Result string: Condition met

====

Known IC50 of a selection of compounds
tested on: Plasmodium falciparum; test: microbe, parasite or virus in culture; details: NF54, Erythrocyte
Description: Antiplasmodial activity against multidrug-sensitive Plasmodium falciparum NF54 infected in human erythrocytes assessed as reduction in [3H]hypoxanthine incorporation preincubated for 48 hrs followed by [3H]hypoxanthine addition and measured after 24 hrs by liquid scintillation counting method
Return type: number; implicit unit nM.

Consider the reported IC50 for these compounds:
{"Compound": "Nc1ncc(-c2ccc(C(=O)N3CCC(N)C3)cc2)nc1-c1ccc(C(F)(F)F)nc1 (centres undefined)", "Units Symbol": "nM", "IC50": 40}
{"Compound": "Nc1ncc(-c2ccc(C(=O)O)cc2)nc1-c1ccc(C(F)(F)F)nc1", "Units Symbol": "nM", "IC50": 19}
{"Compound": "N#Cc1ccc(-c2cnc(N)c(-c3ccc(C(N)=O)cc3)n2)cc1", "Units Symbol": "nM", "IC50": 57}

Please examine the following record next.
Query string: Dear colleague, please send me the reported IC50 for `Nc1ncc(-c2ccc(C(=O)N3CCNCC3)cc2)nc1-c1ccc(C(F)(F)F)nc1` when you can.
Result string: 9.1

====

Known solubility thermodynamic at 2 h of a selection of compounds
assay: Aqueous solubility of compound in pH 2 0.01M HCl incubated for 2 hrs under shaking condition by shake-flask method based HPLC-DAD analysis; type: physicochemical
# output: number + unit

Consider the reported solubility thermodynamic at 2 h for these compounds:
{"Smiles": "CC(C)(C)N1CCN(C(=O)c2ccc(-c3cnc(N)c(-c4ccc(C(F)(F)F)nc4)n3)cc2)CC1", "Metric Name": "solubility thermodynamic at 2 h", "Assay Value": "200 µM"}
{"Smiles": "Nc1ccc(-c2nc(-c3ccc(C(=O)N4CCNCC4)cc3)cnc2N)cn1", "Metric Name": "solubility thermodynamic at 2 h", "Assay Value": "189 µM"}

Query string: Dear colleague, please send me the reported solubility thermodynamic at 2 h for `Nc1ncc(-c2ccc(C(=O)N3CCC(O)CC3)cc2)nc1-c1ccc(C(F)(F)F)cc1` when you can.
Result string: 119 µM

====

test: Aqueous solubility of compound in pH 6.5 PBS incubated for 2 hrs under shaking condition by shake-flask method based HPLC-DAD analysis; type: physicochemical
Known solubility thermodynamic at 2 h of a selection of compounds

Consider the reported solubility thermodynamic at 2 h for these compounds:
{"Smiles": "N#Cc1ccc(-c2cnc(N)c(-c3ccc(N)nc3)n2)cc1", "Assay Value": "< 5 µM"}
{"Smiles": "NC(=O)c1ccc(-c2cnc(N)c(-c3ccc(C(F)(F)F)nc3)n2)cc1", "Assay Value": "< 5 µM"}

Please examine the following record next.
Query string: Dear colleague, please send me the reported solubility thermodynamic at 2 h for `NC(=O)c1ccc(-c2cnc(N)c(-c3ccc(C(F)(F)F)nc3)n2)nc1` when you can.
Result string: < 5 µM
